Every entry's value here was drawn from patent US7820692B2.

# inhibition at 10 µM per record follows
# tested_on: UniProtKB P41145
# test_method_notes: Radioligand receptor binding assay, competition with [3H]diprenorphine, κ-receptor
# test_conditions: compound at 1 × 10^−5 M; read-out: inhibition rate %
# value in %; strip the unit string

Illustrative cases are given below, each with its answer.
compound="COc1cc2c(cc1OC)C(C(=O)N1CCc3ccccc3C1CN1CCCC1)CC2=O (stereo not drawn) [I-5]" measured_result=99.5
compound="O=C1CC(C(=O)N2CCc3ccccc3C2CN2CCCC2)c2cc(Cl)ccc21 (stereo not drawn) [I-6]" measured_result=100
compound="COc1ccc2c(c1)C(CN1CCCC1)N(C(=O)C1CC(=O)c3ccccc31)CC2 (stereo not drawn) [I-14]" measured_result=77.3
compound="COc1ccc2c(c1)C(CN1CCCC1)N(C(=O)C1CC(=O)c3ccc(Cl)cc31)CC2 (stereo not drawn) [I-18]" measured_result=100
compound="COc1ccc2c(c1)C(C(=O)N1CCc3ccccc3C1CN1CCCC1)CC2=O (stereo not drawn) [I-13]" measured_result=100

Now consider a different compound.
[Q] If you can, please state the reported inhibition at 10 µM value of O=C1CC(C(=O)N2CCc3ccccc3C2CN2CCCC2)c2ccccc21 (stereo not drawn) [I-1] .
[A] 100
